Target: SARS2 coronavirus 3CL protease (Severe acute respiratory syndrome coronavirus 2)
Assay: SARS2 Coronavirus 3CL Protease Assay (FRET)
Format: biochemical
Settings: 5 nM protease pre-incubated with compound 30 minutes; 15 uM peptide substrate; 4 h room temperature; read-out: FRET Potency (nM); IC50 values in the SARS2 3CLPro FRET assay
Endpoint label: log10 IC50 (log10 of the value in nM)

{"Compound": "CNC(=O)C(=O)[C@H](CCC(C)(F)F)NC(=O)c1cc(F)cnc1NC(=O)C1CC(F)(F)C1 [Example 28]", "log10 IC50": 1.30}
{"Compound": "CNC(=O)C(=O)[C@H](CCC(C)(F)F)NC(=O)c1cc(Cl)ncc1NC(=O)OC [Example 55]", "log10 IC50": 1.97}
{"Compound": "CNC(=O)C(=O)[C@H](CCC(C)(F)F)NC(=O)c1cc(Cl)ccc1NC(=O)c1cncc(C#N)c1 [Example 51]", "log10 IC50": 1.18}
{"Compound": "CNC(=O)C(=O)[C@H](CCC(C)(F)F)NC(=O)c1cc(Cl)ccc1NC(=O)C1CCc2scnc21 (stereo partly shown) [Example 9]", "log10 IC50": 0.85}
{"Compound": "CNC(=O)C(=O)[C@H](CCC(C)(F)F)NC(=O)c1cc(F)cnc1NC(=O)c1cccc(F)c1 [Example 34]", "log10 IC50": 1.38}
{"Compound": "CNC(=O)C(=O)[C@H](CCC(C)(F)F)NC(=O)c1cc(C#N)ccc1NC(=O)C12CC(C(F)(F)F)(C1)C2 [Example 37]", "log10 IC50": 1.49}
{"Compound": "CNC(=O)C(=O)[C@H](CCC(C)(F)F)NC(=O)c1cc(Cl)ccc1NC(=O)C1(C(F)(F)F)CC1 [Example 20]", "log10 IC50": 1.06}

Cited source for all entries: patent US20260209180A1
